# ASSAY TARGET: UniProt P20393
# Sequence (P20393 284-614 limits assumed): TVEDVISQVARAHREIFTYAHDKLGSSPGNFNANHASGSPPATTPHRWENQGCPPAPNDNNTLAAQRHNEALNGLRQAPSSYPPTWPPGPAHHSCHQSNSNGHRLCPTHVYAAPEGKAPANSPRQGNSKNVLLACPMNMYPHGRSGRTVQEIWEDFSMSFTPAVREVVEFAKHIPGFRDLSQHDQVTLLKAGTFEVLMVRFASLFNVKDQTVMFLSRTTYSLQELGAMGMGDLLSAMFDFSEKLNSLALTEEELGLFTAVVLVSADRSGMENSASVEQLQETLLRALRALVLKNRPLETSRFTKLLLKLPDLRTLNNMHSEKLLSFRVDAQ
# ASSAY METHOD TEXT: M2H (mammalian two-hybrid) cellular activation assay of Rev-Erb alpha
# Type: cell-based
# CONDITIONS: M2H assay, HEK293 cells, Gal4-Rev-Erb alpha / VP16-NCoR, luciferase reporter
pEC50: −log10 of the molar value.
Measured pEC50, listed per entry.

Known results for compounds:
COMPOUND	pEC50
CCc1nnc2cc(C)c(Oc3cc(C(F)(F)F)ccc3-c3cncnc3)nn12	5.22 to 6.00
COc1nccc(C)c1-c1ccc(C(F)(F)F)cc1Oc1cc(C)c2nnc(Cl)n2n1	5.22 to 6.00
Fc1ccc(Oc2ccc3nnc(Cl)n3n2)c(-c2ccc(F)c(F)c2)c1	6.00 to 7.00

Consider the additional compound presented here.
Asked: Give the measured pEC50 of O=[N+]([O-])c1cccc(-c2cc(F)ccc2Oc2ccc3nnc(Cl)n3n2)c1 .
Given back: 5.22 to 6.00

====

MEASUREMENT KIND: melting point (°C)

Record excerpt, results attached:
COMPOUND	VALUE UNITS	melting point
Fc1ccc(-c2ccccc2Oc2ccc3nnc(Cl)n3n2)cc1	°C	144.4
Fc1ccc(-c2cc(F)ccc2Oc2ccc3nnc(Cl)n3n2)cc1	°C	141.1
Fc1ccc(-c2cccc(Oc3ccc4nnc(Cl)n4n3)c2)cc1	°C	88

I = COc1ncc(-c2ccc(C(F)(F)F)cc2Oc2nn3c(Cl)nnc3c3ccccc23)c(OC)n1
II = Fc1ccccc1-c1cccc(Oc2ccc3nnc(Cl)n3n2)c1
III = CC(NC1CCCCC1)c1ccc(Oc2ccc3nnc(Cl)n3n2)c(-c2ccccc2)c1 (stereo not shown)
Asked: Order the items by recorded melting point; the first position goes to the largest value. I would appreciate it if you listed the labels in the requested order.
Given back: I, II, III
(I: 240 °C, II: 128.6 °C, III: 50.6 °C)

====

# ASSAY TARGET: Rev-Erb alpha (Homo sapiens)
# Sequence (P20393 284-614 limits assumed): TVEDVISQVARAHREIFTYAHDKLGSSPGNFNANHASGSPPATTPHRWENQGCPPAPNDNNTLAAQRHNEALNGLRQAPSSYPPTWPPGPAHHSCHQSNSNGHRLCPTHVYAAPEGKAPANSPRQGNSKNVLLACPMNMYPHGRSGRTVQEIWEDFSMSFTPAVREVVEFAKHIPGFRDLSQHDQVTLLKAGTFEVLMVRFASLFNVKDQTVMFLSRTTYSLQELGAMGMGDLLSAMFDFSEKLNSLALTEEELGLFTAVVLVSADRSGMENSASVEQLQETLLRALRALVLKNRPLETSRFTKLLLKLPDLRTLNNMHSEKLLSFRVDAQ
# ASSAY METHOD TEXT: M2H (mammalian two-hybrid) cellular activation assay of Rev-Erb alpha
# Format: cell-based
# CONDITIONS: M2H assay, HEK293 cells, Gal4-Rev-Erb alpha / VP16-NCoR, luciferase reporter
MEASUREMENT KIND: EC50

MOLECULE SMILES	ASSAY TARGET	EC50
Clc1nnc2ccc(Oc3ccccc3-c3ccc4scnc4c3)nn12	Rev-Erb alpha (Homo sapiens)	100 to 1000 nM
Cc1ccc2c(Oc3cc(C(F)(F)F)ccc3-c3ccccc3)nn3c(Cl)nnc3c2c1	Rev-Erb alpha (Homo sapiens)	100 to 1000 nM
Clc1nnc2ccc(Oc3ccccc3-c3cscn3)nn12	Rev-Erb alpha (Homo sapiens)	> 6000 nM
CCCCNc1ccc(Oc2ccc3nnc(Cl)n3n2)c(-c2ccccc2)c1	Rev-Erb alpha (Homo sapiens)	100 to 1000 nM

Moving on to another compound below.
Asked: Please look up its EC50: FC(F)(F)c1ccc(Oc2ccc3nnc(Cl)n3n2)c(-c2ccccc2)c1
Given back: 100 to 1000 nM
